target: full length SGK1 (Homo sapiens, UniProt O00141); construct: 125 μM full length SGK1 (Life Technologies Part #PR7358A); purchased Life Technologies PR7358A; test: SGK1 inhibition Assay A (Caliper LabChip electrophoretic separation of fluorescent peptide substrate and phosphorylated product); format: biochemical; details: Assay A; 20 μM ATP, 40 min incubation; read-out: SGK1 IC50
Kindly state pIC50 for each of the entries shown.
Remember the convention: pIC50 equals -log10 of concentration in molar.

Data request, read-out pIC50, for CC(=O)N1CC=C(c2cc(N3CCC[C@@H](NC(=O)c4ccc(-c5cncnc5)s4)C3)c3c(N)ncnn23)C1 [Example 548]
7.05

Would you kindly repeat that for CC(=O)N1CC=C(c2cc(N3CCC[C@@H](NC(=O)c4cccc(N5CCOCC5)n4)C3)c3c(N)ncnn23)C1 [Example 703] ?
7.54

Next: CNc1cccc(C(=O)N[C@@H]2CCCN(c3cc(C4=CCN(C(C)=O)C4)n4ncnc(N)c34)C2)n1 [Example 778]
7.68

Also need CC(=O)N1CC=C(c2cc(N3CCC[C@@H](NC(=O)c4cccc(N5CC(S(C)(=O)=O)C5)n4)C3)c3c(N)ncnn23)C1 [Example 764] , thanks.
7.21

Try NCCOc1cc(C(F)F)sc1C(=O)N[C@@H]1CCCN(c2cc(-c3ccnc(C(F)F)c3)n3ncnc(N)c23)C1 [Example 326] next.
8.40

Field entry: Nc1ncnn2c(C3=CCN(C(=O)c4ncco4)C3)cc(N3CCC[C@@H](NC(=O)c4ccc(Cl)s4)C3)c12 [Example 887]
8.10

Nc1ncnn2c(-c3ccnc(F)c3)cc(N3CCC[C@@H](NC(=O)Cc4ccc(Cl)s4)C3)c12 [Example 151] ?
6.55

Query CN(C)CCOc1cc(Cl)sc1C(=O)N[C@@H]1CCCN(c2cc(-c3ccnc(C(F)F)c3)n3ncnc(N)c23)C1 [Example 340] next
8.52

How about CN1CCN(CCOc2cc(Cl)sc2C(=O)N[C@@H]2CCCN(c3cc(-c4ccnc(C(F)F)c4)n4ncnc(N)c34)C2)CC1 [Example 342] ?
8.40

What do you get for CN(C)CCOc1cc(Cl)sc1C(=O)N[C@@H]1CCCN(c2cc(-c3cccc(C=O)c3)n3ncnc(N)c23)C1 [Example 283] ?
8.22

// repeat for CC(=O)N1CC=C(c2cc(N3CCC[C@@H](NC(=O)c4ccc(C)s4)C3)c3c(N)ncnn23)C1 [Example 255] and report
8.00

CC(=O)N1CC=C(c2cc(N3CCC[C@@H](NC(=O)N4CC[C@H](O)C4)C3)c3c(N)ncnn23)C1 [Example 875] , same question.
6.32

And then CC(=O)N1CC=C(c2cc(N3CCC[C@@H](NC(=O)c4sc(C)nc4C)C3)c3c(N)ncnn23)C1 [Example 472] , what is it?
7.21

Again, but for Nc1ncnn2c(-c3ccc(=O)n(C(F)F)c3)cc(N3CCC[C@@H](NC(=O)c4ccc(C(F)F)s4)C3)c12 [Example 527]
6.83

---

Protein target, amino acids: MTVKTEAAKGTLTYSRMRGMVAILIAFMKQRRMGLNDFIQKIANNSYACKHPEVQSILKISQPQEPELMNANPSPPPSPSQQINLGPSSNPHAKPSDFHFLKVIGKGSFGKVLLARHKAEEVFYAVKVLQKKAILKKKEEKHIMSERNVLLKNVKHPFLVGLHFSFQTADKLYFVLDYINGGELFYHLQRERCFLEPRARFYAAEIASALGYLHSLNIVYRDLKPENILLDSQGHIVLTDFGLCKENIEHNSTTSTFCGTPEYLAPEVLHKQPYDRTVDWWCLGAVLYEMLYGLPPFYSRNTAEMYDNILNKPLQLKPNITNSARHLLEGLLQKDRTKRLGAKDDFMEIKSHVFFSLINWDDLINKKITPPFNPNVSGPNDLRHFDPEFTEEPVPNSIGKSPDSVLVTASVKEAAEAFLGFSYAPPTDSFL
Structures can show the parent of a compound that is named as a salt.
quantity-kind: IC50 (nM)
Numeric only. Scale: nM

# get_value(readout='IC50', item= CNC(=O)c1ccc(-c2cc(N3CCC[C@@H](NC(=O)c4sc(C)nc4O[C@H]4CC[C@@H](N(C)C)CC4)C3)c3c(N)ncnn23)cc1F )
3

Same thing, different compound: CCC1=C(c2cc(N3CCC[C@@H](NC(=O)c4sc(C)nc4OC4CCC(N5CC(O)C5)CC4)C3)c3c(N)ncnn23)COC1=O (single isomer, unassigned)
0.7

Now the compound CN1[C@@H]2CC[C@H]1C[C@H](Oc1cc(Cl)sc1C(=O)N[C@@H]1CCCN(c3cc(C4=CC(=O)OC4)n4ncnc(N)c34)C1)C2 [Example 927, TFA salt]
0.1

Would you kindly repeat that for CCN1CCC(Oc2nc(C)sc2C(=O)N[C@@H]2CCCN(c3cc(C4=CCN(C(=O)C5(C#N)CC5)C4)n4ncnc(N)c34)C2)CC1(C)C (some centres unmarked) ?
4

# repeat for Cc1nc(O[C@H]2CC[C@@H](NCC(C)(C)O)CC2)c(C(=O)N[C@@H]2CCCN(c3cc(-c4ccc(C(N)=O)c(F)c4)n4ncnc(N)c34)C2)s1
3

Then what about the compound CN1[C@@H]2CC[C@H]1C[C@H](Oc1cc(Cl)sc1C(=O)N[C@@H]1C[C@@H](F)CN(c3cc(-c4ccc(-n5cnnn5)c(F)c4)n4ncnc(N)c34)C1)C2 [Example 925, TFA salt] ?
0.4

Ok, now Cc1cc(O[C@@H]2C[C@H]3CC[C@@H](C2)N3C)c(C(=O)N[C@@H]2CCCN(c3cc(-c4cnn(C(F)F)c4)n4ncnc(N)c34)C2)s1 [Example 848, TFA salt]
6

Please do the same for CC(C)N1CC2CC(Oc3cc(Cl)sc3C(=O)N[C@@H]3CCCN(c4cc(-c5ccc(-n6cnnn6)nc5)n5ncnc(N)c45)C3)CC2C1 (some centres unmarked) as well.
2

Now the same for Cc1cc(-c2cc(N3CCC[C@@H](NC(=O)c4sc(C)nc4OC4CCC(N5CCC5)CC4)C3)c3c(N)ncnn23)cnn1 (some centres unmarked)
9.9

Ok, now Cc1nc(O[C@H]2CC[C@@H](CNCC(C)(C)C)CC2)c(C(=O)N[C@@H]2CCCN(c3cc(-c4ccc(C(N)=O)c(F)c4)n4ncnc(N)c34)C2)s1
4

Can you handle CC(=O)N1CC=C(c2cc(N3CCC[C@@H](NC(=O)c4sc(Cl)cc4OC4CCN(C)C(C)(C)C4)C3)c3c(N)ncnn23)C1 (single isomer, unassigned) next?
2
